Values compiled from PubChem BioAssay (NCATS).

Assay: Quantitative High-Throughput drug screen in 47 multiple myeloma cell lines against the NCATS MIPE library collection: MM1S_ATCC cell viability assay (AID 1918980); also: nearly all actives have a fitted effect of over 45% in size
Conditions: MM1S myeloma viability, CellTiter-Glo ATP luminescence, 48 h; series mostly up to 45.8 µM
Inconclusive results are not listed. Active and inactive are the calls of the source. Calls follow the shape of the dose curve; as a rule, active = well fitted cell-killing curve with a large enough effect; inconclusive = small, poorly fitted or top-dose-only effect, or effect the other way; inactive = no such curve, though single readings can be large or run the other way.
Outcomes: active, inactive

{"columns": ["molecule", "discrete_label"],
 "data": [
  ["CN(C)c1ccc(Nc2nc(N)n(C(=O)c3c(F)cccc3F)n2)cc1", "active"],
  ["Cc1n[nH]c(C)c1Cc1sc2c(c1C(=O)N1C[C@H](O)CO1)c(=O)n(C)c(=O)n2CC(C)C", "active"],
  ["Nc1ccc(S(=O)(=O)Nc2ccnn2-c2ccccc2)cc1", "inactive"],
  ["COc1cccc2cc(-c3nc(C4CCC(C(=O)O)CC4)n4ncnc(N)c34)[nH]c12 (stereo not given)", "active"],
  ["Clc1ccc(Nc2nnc(Cc3ccncc3)c3ccccc23)cc1", "active"]
]}
